meta.source: the NIST ThermoML archive (doi:10.1021/je060339m)

- details: 393.15 K; 1000 kPa; Liquid
metric: mass density (kg/m3)

Ask: Looking for the measured mass density of CCCCCOC(C)=O [pentyl ethanoate] , can you help?
Reply: 778.7

Ask: Looking for the measured mass density of CCCOC(C)=O [propyl ethanoate] , can you help?
Reply: 771.8

Ask: Looking for the measured mass density of CCOC(C)=O [ethyl acetate] , can you help?
Reply: 771

Ask: Looking for the measured mass density of CCCCOC(C)=O [butyl ethanoate] , can you help?
Reply: 776.4

* * *

- details: 378.15 K; 5000 kPa; Liquid
metric: mass density (kg/m3)

Ask: Looking for the measured mass density of CCCCOC(C)=O [butyl ethanoate] , can you help?
Reply: 798

Ask: Looking for the measured mass density of CCOC(C)=O [ethyl acetate] , can you help?
Reply: 799.6

Ask: Looking for the measured mass density of CCCCCOC(C)=O [pentyl ethanoate] , can you help?
Reply: 797.1

Ask: Looking for the measured mass density of CCCOC(C)=O [propyl ethanoate] , can you help?
Reply: 796.3

* * *

- details: 388.15 K; 2000 kPa; Liquid
metric: mass density (kg/m3)

Ask: Looking for the measured mass density of CCOC(C)=O [ethyl acetate] , can you help?
Reply: 780.5

Ask: Looking for the measured mass density of CCCCCOC(C)=O [pentyl ethanoate] , can you help?
Reply: 785

Ask: Looking for the measured mass density of CCCCOC(C)=O [butyl ethanoate] , can you help?
Reply: 783.2

Ask: Looking for the measured mass density of CCCOC(C)=O [propyl ethanoate] , can you help?
Reply: 779.8

* * *

- details: 343.15 K; 20000 kPa; Liquid
metric: mass density (kg/m3)

Ask: Looking for the measured mass density of CCCOC(C)=O [propyl ethanoate] , can you help?
Reply: 854.3

Ask: Looking for the measured mass density of CCCCCOC(C)=O [pentyl ethanoate] , can you help?
Reply: 847.7

Ask: Looking for the measured mass density of CCCCOC(C)=O [butyl ethanoate] , can you help?
Reply: 850.5

Ask: Looking for the measured mass density of CCOC(C)=O [ethyl acetate] , can you help?
Reply: 863

* * *

- details: 313.15 K; 35000 kPa; Liquid
metric: mass density (kg/m3)

Ask: Looking for the measured mass density of CCCCCOC(C)=O [pentyl ethanoate] , can you help?
Reply: 885.5

Ask: Looking for the measured mass density of CCCOC(C)=O [propyl ethanoate] , can you help?
Reply: 897.7

Ask: Looking for the measured mass density of CCOC(C)=O [ethyl acetate] , can you help?
Reply: 910.9

Ask: Looking for the measured mass density of CCCCOC(C)=O [butyl ethanoate] , can you help?
Reply: 890.5

* * *

- details: 308.15 K; 20000 kPa; Liquid
metric: mass density (kg/m3)

Ask: Looking for the measured mass density of CCCCOC(C)=O [butyl ethanoate] , can you help?
Reply: 881.9

Ask: Looking for the measured mass density of CCCCCOC(C)=O [pentyl ethanoate] , can you help?
Reply: 877.3

Ask: Looking for the measured mass density of CCCOC(C)=O [propyl ethanoate] , can you help?
Reply: 888.4

Ask: Looking for the measured mass density of CCOC(C)=O [ethyl acetate] , can you help?
Reply: 900.9

* * *

- details: 373.15 K; 15000 kPa; Liquid
metric: mass density (kg/m3)

Ask: Looking for the measured mass density of CCCCCOC(C)=O [pentyl ethanoate] , can you help?
Reply: 813.9

Ask: Looking for the measured mass density of CCCOC(C)=O [propyl ethanoate] , can you help?
Reply: 816.6

Ask: Looking for the measured mass density of CCOC(C)=O [ethyl acetate] , can you help?
Reply: 822

Ask: Looking for the measured mass density of CCCCOC(C)=O [butyl ethanoate] , can you help?
Reply: 815.9
